Ref: PubChem BioAssay AID1963863

# System: 931267-113-T-J1-PDC KRAS spheroid with HUVEC/MSC, viability
# assay-info: Anticancer human tumor 931267-113-T-J1-PDC patient-derived colon adenocarcinoma cell line growth inhibition [KRAS2]
# reported-conditions: second compound 0.316 µM; first compound 0.01 µM; stronger effect = lower value
molecules and their reported viability, T/C

molecule	study-system	viability, T/C (%)
CN(C)C/C=C/C(=O)Nc1cc2c(Nc3ccc(F)c(Cl)c3)ncnc2cc1O[C@H]1CCOC1 + C=CC(=O)N1CCN(c2nc(=O)n(-c3c(C)ccnc3C(C)C)c3nc(-c4c(O)cccc4F)c(F)cc23)C(C)C1	931267-113-T-J1-PDC KRAS spheroid with HUVEC/MSC, viability	96.1
CC(C)n1nc(-c2ccc3oc(N)nc3c2)c2c(N)ncnc21 + C=CC(=O)N1CCN(c2nc(=O)n(-c3c(C)ccnc3C(C)C)c3nc(-c4c(O)cccc4F)c(F)cc23)C(C)C1	931267-113-T-J1-PDC KRAS spheroid with HUVEC/MSC, viability	44.8
CN(C)C/C=C/C(=O)Nc1cc2c(Nc3ccc(F)c(Cl)c3)ncnc2cc1O[C@H]1CCOC1 + COc1cc2nc(C)nc(NC(C)c3cc(N)cc(C(F)(F)F)c3)c2cc1OC1CCOC1	931267-113-T-J1-PDC KRAS spheroid with HUVEC/MSC, viability	87.6

---

# Tested on: 931267-113-T-J1-PDC KRAS spheroid with HUVEC/MSC, viability
# assay-info: Anticancer human tumor 931267-113-T-J1-PDC cell line growth inhibition [KRAS2];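 note: compound exposure lasted 7 days before the readout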
# reported-conditions: curve of first compound; second compound 1 µM
Measured IC50 accompanies every entry in the list below.
reported-endpoint: IC50 (nM)

compound	reported-endpoint	relation-operator	measured-number
CC(=O)OC12COC1CC(O)C1(C)C(=O)C(O)C3=C(C)C(OC(=O)C(O)C(NC(=O)OC(C)(C)C)c4ccccc4)CC(O)(C(OC(=O)c4ccccc4)C21)C3(C)C (stereo not given) + C=CC(=O)N1CCN(c2nc(OCC3CCCN3C)nc3c2CCN(c2cccc4cccc(C)c24)C3)CC1CC#N	IC50	=	1300
CC1(C)CCC(CN2CCN(c3ccc(C(=O)NS(=O)(=O)c4ccc(NCC5CCOCC5)c([N+](=O)[O-])c4)c(Oc4cnc5[nH]ccc5c4)c3)CC2)=C(c2ccc(Cl)cc2)C1 + CC1OCC2(CCN(c3cnc(Sc4ccnc(N)c4Cl)c(N)n3)CC2)C1N	IC50	=	1740
COC(=O)c1ccc2c(C(=Nc3ccc(N(C)C(=O)CN4CCN(C)CC4)cc3)c3ccccc3)c(O)[nH]c2c1 + C=CC(=O)N1CCN(c2nc(=O)n(-c3c(C)ccnc3C(C)C)c3nc(-c4c(O)cccc4F)c(F)cc23)C(C)C1	IC50	=	1050
COc1cc(Nc2ncc3c(n2)-c2ccc(Cl)cc2C(c2c(F)cccc2OC)=NC3)ccc1C(=O)O + CNCc1ccccc1-c1csc(C(C)Nc2nc(C)nc3cc(OC)c(OC)cc23)c1	IC50	<	31.6
Cn1nccc1Nc1nccc(-c2cc3c(s2)C(C)(C)N(CCN2CCOCC2)C3=O)n1 + C=CC(=O)N1CCN(c2nc(OCC3CCCN3C)nc3c2CCN(c2cccc4cccc(C)c24)C3)CC1CC#N	IC50	=	365

---

# Test system: 931267-113-T-J1-PDC KRAS spheroid with HUVEC/MSC, viability
# assay-info: Anticancer human tumor 931267-113-T-J1-PDC cell line growth inhibition [KRAS2];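 note: compound exposure lasted 7 days before the readout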;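 for viability, T/C: 100% = DMSO vehicle control viability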
# reported-conditions: second compound 3.16 µM; first compound 0.0316 µM; stronger effect = lower value
Exam item: assign condition met to entries whose viability, T/C is below 0.4% and condition not met to entries at or above 0.4%. Note that a value of exactly 0.4% receives condition not met.

compound	label-class
CC1OCC2(CCN(c3cnc(Sc4ccnc(N)c4Cl)c(N)n3)CC2)C1N (stereo unspecified) + C=CC(=O)N1CCN(c2nc(=O)n(-c3c(C)ccnc3C(C)C)c3nc(-c4c(O)cccc4F)c(F)cc23)C(C)C1	condition not met
Cn1nccc1Nc1nccc(-c2cc3c(s2)C(C)(C)N(CCN2CCOCC2)C3=O)n1 + CC1OCC2(CCN(c3cnc(Sc4ccnc(N)c4Cl)c(N)n3)CC2)C1N	condition not met
CC1COCCN1c1cc(-c2ccnn2C)c2ccnc(-c3ccn[nH]3)c2n1 (stereo unspecified) + C=CC(=O)N1CCN(c2nc(=O)n(-c3c(C)ccnc3C(C)C)c3nc(-c4c(O)cccc4F)c(F)cc23)C(C)C1	condition not met
CC1COCCN1c1cc(-c2ccnn2C)c2ccnc(-c3ccn[nH]3)c2n1 (stereo unspecified) + C=CC(=O)N1CCN(c2nc(OCC3CCCN3C)nc3c2CCN(c2cccc4cccc(C)c24)C3)CC1CC#N	condition met
Cn1ncnc1[C@H]1c2n[nH]c(=O)c3cc(F)cc(c23)N[C@@H]1c1ccc(F)cc1 + COc1cc2nc(C)nc(NC(C)c3cc(N)cc(C(F)(F)F)c3)c2cc1OC1CCOC1	condition not met
CCNC(=O)CC1N=C(c2ccc(Cl)cc2)c2cc(OC)ccc2-n2c(C)nnc21 (stereo unspecified) + C=CC(=O)N1CCN(c2nc(OCC3CCCN3C)nc3c2CCN(c2cccc4cccc(C)c24)C3)CC1CC#N	condition met
CCN1CCN(Cc2ccc(Nc3ncc(F)c(-c4cc(F)c5nc(C)n(C(C)C)c5c4)n3)nc2)CC1 + COc1cc2nc(C)nc(NC(C)c3cc(N)cc(C(F)(F)F)c3)c2cc1OC1CCOC1	condition not met
CC1(C)CCC(CN2CCN(c3ccc(C(=O)NS(=O)(=O)c4ccc(NCC5CCOCC5)c([N+](=O)[O-])c4)c(Oc4cnc5[nH]ccc5c4)c3)CC2)=C(c2ccc(Cl)cc2)C1 + C=CC(=O)N1CCN(c2nc(OCC3CCCN3C)nc3c2CCN(c2cccc4cccc(C)c24)C3)CC1CC#N	condition met
CC(=O)OC12COC1CC(O)C1(C)C(=O)C(O)C3=C(C)C(OC(=O)C(O)C(NC(=O)OC(C)(C)C)c4ccccc4)CC(O)(C(OC(=O)c4ccccc4)C21)C3(C)C (stereo unspecified) + C=CC(=O)N1CCN(c2nc(OCC3CCCN3C)nc3c2CCN(c2cccc4cccc(C)c24)C3)CC1CC#N	condition not met
CC(C)NCC(C(=O)N1CCN(c2ncnc3c2C(C)CC3O)CC1)c1ccc(Cl)cc1 (stereo unspecified) + CNCc1ccccc1-c1csc(C(C)Nc2nc(C)nc3cc(OC)c(OC)cc23)c1	condition met
CCN1CCN(Cc2ccc(Nc3ncc(F)c(-c4cc(F)c5nc(C)n(C(C)C)c5c4)n3)nc2)CC1 + CNCc1ccccc1-c1csc(C(C)Nc2nc(C)nc3cc(OC)c(OC)cc23)c1	condition met
